- study system: T1, human CTGF (Homo sapiens, UniProt P29279, H83D)
- T1 construct: purchased Creative Biomart
- T1 sequence (P29279 with tags, fused parts or gaps H83D): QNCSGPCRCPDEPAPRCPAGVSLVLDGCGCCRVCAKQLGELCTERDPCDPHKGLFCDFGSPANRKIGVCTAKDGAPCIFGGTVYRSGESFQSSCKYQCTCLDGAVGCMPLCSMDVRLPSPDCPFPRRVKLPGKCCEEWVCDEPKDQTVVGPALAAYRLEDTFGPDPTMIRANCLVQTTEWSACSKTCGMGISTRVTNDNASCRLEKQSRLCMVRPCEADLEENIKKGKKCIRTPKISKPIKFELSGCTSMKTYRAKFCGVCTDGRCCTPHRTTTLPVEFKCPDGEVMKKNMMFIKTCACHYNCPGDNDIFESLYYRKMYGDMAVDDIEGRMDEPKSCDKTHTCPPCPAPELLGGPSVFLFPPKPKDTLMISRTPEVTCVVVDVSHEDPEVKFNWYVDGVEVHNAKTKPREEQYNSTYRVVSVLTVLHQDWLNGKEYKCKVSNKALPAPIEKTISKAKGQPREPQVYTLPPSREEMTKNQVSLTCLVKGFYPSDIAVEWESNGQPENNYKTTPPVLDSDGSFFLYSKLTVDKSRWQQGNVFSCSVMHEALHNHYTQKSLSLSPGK
- experimental details: SPR binding kinetics and affinity, human CTGF
- details: 25° C., 1:1 binding model
observed property: human CTGF kon (M⁻¹ s⁻¹)
One number for each entry, in M⁻¹ s⁻¹.

>>> number("SEQ ID NO: 21: optimized CTGF-binding hNGAL lipocalin mutein (protein, lipocalin mutein) QDSTSDLIPAPPLSKVPLQQNFQDNQFQGKWYVVGLAGNAILREDKQPAKMFATIYELKEDKSYDVTSVRFEAKSCSYTIKTFVPGSQPGEFTAGNIKSAPGQTSTLVRVVSTNYNQHAMVFFKAVRGARESFNIALYGRTKELTSELKENFIRFSKSLGLPENHIVFPVPIDQCIDG")
127000

Each molecule below has a reported value. Please supply its human CTGF kon.
1. SEQ ID NO: 36: optimized CTGF-binding hNGAL lipocalin mutein (protein, lipocalin mutein) QDSTSDLIPAPPLSKVPLQQNFQDNQFQGKWYVVGWAGNVKLREDKQPAKMSATIYELKEDKSYDVTEVVFEQKKCHYIIKTFVPGSQPGEFTAGDIKSPPGYTSSLVRVVSTNYNQHAMVFFKKVGQNREFFWITLYGRTKELTSELKENFIRFSKSLGLPENHIVFPVPIDQCIDG
2. SEQ ID NO: 5: optimized CTGF-binding hNGAL lipocalin mutein (protein, lipocalin mutein) QDSTSDLIPAPPLSKVPLQQNFQDNQFQGKWYVVGKAGNALREDKEPPKMWATIYELKEDKSYDVTHVHFLTKKCKYLIDTFVPGSQPGEFTIGAIKSGPGLTSPLVRVVSTNYNQHAMVFFKWVSQNREWFTITLYGRTKELTSELKENFIRFSKSLGLPENHIVFPVPIDQCIDG
3. SEQ ID NO: 31: optimized CTGF-binding hNGAL lipocalin mutein (protein, lipocalin mutein) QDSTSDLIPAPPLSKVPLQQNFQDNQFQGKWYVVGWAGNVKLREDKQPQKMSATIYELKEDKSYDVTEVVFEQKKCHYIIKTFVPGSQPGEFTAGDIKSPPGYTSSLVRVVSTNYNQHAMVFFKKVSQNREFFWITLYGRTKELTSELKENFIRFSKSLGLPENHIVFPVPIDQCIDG
4. SEQ ID NO: 15: optimized CTGF-binding hNGAL lipocalin mutein (protein, lipocalin mutein) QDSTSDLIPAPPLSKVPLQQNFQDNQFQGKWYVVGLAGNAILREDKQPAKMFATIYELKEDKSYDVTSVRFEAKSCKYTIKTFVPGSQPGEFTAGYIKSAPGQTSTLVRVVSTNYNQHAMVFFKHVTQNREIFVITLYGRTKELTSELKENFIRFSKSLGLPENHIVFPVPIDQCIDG

## Output
165000
211000
195000
81700
